- assay.explanation: Solubility in KMOPS buffer pH 7.2
- Assay type: physicochemical
- condition.parameters: aqueous buffer; KMOPS buffer, pH 7.2; read-out: solubility
This section presents compounds with their documented solubility values.
test.readout: solubility

compound="COc1cc(COc2ccc(CCN)cc2O)nc2c(C#N)c(O)ccc12.O=C(O)C(F)(F)F [3c]" observed_value="> 100 µM"
compound="Cc1cc(COc2cc(CCN)ccc2O)nc2c(C#N)c(O)ccc12.O=C(O)C(F)(F)F [3a]" observed_value="> 100 µM"
compound="COc1cc(COc2ccc3[nH]cc(CCN)c3c2)nc2c(C#N)c(O)ccc12.O=C(O)C(F)(F)F [4c]" observed_value="> 100 µM"
